Reference source: patent US20170007610A1

target_or_system: kappa opioid receptor (Homo sapiens, UniProt P41145)
Construct: grown in complete Ham's F-12 medium
Sequence (P41145 whole entry): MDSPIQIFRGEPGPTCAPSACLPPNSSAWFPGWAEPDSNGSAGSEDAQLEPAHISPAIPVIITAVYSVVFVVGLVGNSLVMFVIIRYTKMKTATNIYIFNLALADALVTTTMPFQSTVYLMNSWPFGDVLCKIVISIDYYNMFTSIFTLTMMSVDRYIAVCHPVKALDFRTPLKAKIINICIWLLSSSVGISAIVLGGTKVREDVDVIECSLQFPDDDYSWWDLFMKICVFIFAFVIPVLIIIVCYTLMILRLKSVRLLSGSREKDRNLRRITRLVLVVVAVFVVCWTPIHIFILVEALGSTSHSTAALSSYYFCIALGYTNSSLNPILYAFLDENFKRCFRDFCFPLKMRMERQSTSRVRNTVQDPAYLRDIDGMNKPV
measurement_protocol: Invitro KOR agonistic activity, cAMP based functional assay
Type: cell-based
pEC50: −log10 of the molar value.
quantity_kind: pEC50

structure_smiles	quantity_kind	value_reported
CN(C(=O)COc1cccc2ncccc12)[C@H](CN1CC[C@H](O)C1)c1cccc(NS(C)(=O)=O)c1	pEC50	10.38
CN(C(=O)COc1ccc(NS(C)(=O)=O)c2ncccc12)[C@H](CN1CC[C@H](O)C1)c1cccc([N+](=O)[O-])c1	pEC50	10.36
CN(C(=O)COc1ccc2occc2c1)[C@H](CN1CC[C@H](O)C1)c1ccccc1	pEC50	10.40
CN(C)c1cccc([C@@H](CN2CC[C@H](O)C2)N(C)C(=O)COc2ccc(NS(C)(=O)=O)c3ncccc23)c1	pEC50	9.16
CN(C(=O)COc1cc(NS(C)(=O)=O)c2ccccc2n1)[C@H](CN1CC[C@H](O)C1)c1ccccc1	pEC50	10.46
CN(C(=O)COc1ccc(NS(C)(=O)=O)c2c1NCCC2)[C@H](CN1CC[C@H](O)C1)c1ccccc1	pEC50	10.92
